biological target: PKC alpha kinase (Homo sapiens); assay: PKC alpha kinase inhibition, coupled-enzyme NADH absorbance assay (Ki); assay type: biochemical; conditions: 130 μM ATP, 4.5 nM PKC alpha, 30° C.; read-out: Ki PKC alpha
pKi: −log10 of the molar value.
The entries below are paired with their reported pKi.

N#CC1(c2cc(-c3ccnc4[nH]ncc34)cc(C(F)(F)F)c2)CCC1
> 5.55
CCCc1cc(-c2ccnc3[nH]nc(Cl)c23)cc(C(C)(CC)CN)c1 (centres unmarked)
> 6.30
CCC(C)(CN)c1cc(-c2ccnc3[nH]ncc23)cc(C(C)(F)F)c1 (centres unmarked)
> 6.30
CC(C)C(O)c1cc(-c2ccnc3[nH]ncc23)cc(C(C)(C)C#N)c1 (centres unmarked)
< 5.55
CCC(F)c1cc(-c2ccnc3[nH]ncc23)cc(C(C)(C#N)CC)c1 (centres unmarked)
> 5.55
CCc1n[nH]c2nccc(-c3cccc(C(C)(CC)CN)c3)c12 (centres unmarked)
> 7.30
CCC(C)(C#N)c1cc(Cl)cc(-c2ccnc3[nH]ncc23)c1 (centres unmarked)
> 5.55

Prompt line: Give the reported pKi for this compound. `N#CC1(c2cc(-c3ccnc4[nH]ncc34)cc(C(F)(F)C3CNC3)c2)CC1`
Response line: > 5.55
